Assay: yeast AGP1-GFP fluorescence change, single-dose – cell-based, flow cytometry, S. cerevisiae, cherry picks, confirmation (AID 2273);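 further: median GFP channel fluorescence over the whole cell population gate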
Conditions: S. cerevisiae AGP1-GFP strain, 3 h, at 10 µM
attribute_measured: GFP response, % of DMSO (%)

* Cn1c(=O)c(C(=O)NCCO)c(O)c2ccccc21 | 98.3
* COC(=O)n1c(=S)oc2cc(Cl)ccc21 | 111
* CN(C)c1ccc(/C=C/C(=O)c2cccc(Br)c2)cc1 | 94
* O=C(NCCN1CCN(c2ccccc2)CC1)c1cccc(Br)c1 | 100
* N#C/C(C(N)=O)=c1/ccc2c(c1)N1C3=C(CCCC3)CC3CCCCC31N=2 (stereo not given) | 100
* O=C(O)Cc1ccc(-c2ccccc2)cc1 | 100
* COc1ccc(-c2[nH]ncc2CN(CCO)Cc2cccs2)c(F)c1 | 97.2
* Cc1ccc(OCCCCn2ccnc2C)c(C)c1 | 101
* COC(=O)c1ccc2nc(Nc3nc4c(F)cc(F)cc4s3)sc2c1 | 102
* CN(C)CCCN1c2ccccc2Sc2ccc(Cl)cc21 | 94.3

---

Molecular target: Integrin beta-1 (Homo sapiens) + Integrin alpha-4 (Homo sapiens) (UniProt P13612+P05556)
Sequence (P05556 whole entry, looked up): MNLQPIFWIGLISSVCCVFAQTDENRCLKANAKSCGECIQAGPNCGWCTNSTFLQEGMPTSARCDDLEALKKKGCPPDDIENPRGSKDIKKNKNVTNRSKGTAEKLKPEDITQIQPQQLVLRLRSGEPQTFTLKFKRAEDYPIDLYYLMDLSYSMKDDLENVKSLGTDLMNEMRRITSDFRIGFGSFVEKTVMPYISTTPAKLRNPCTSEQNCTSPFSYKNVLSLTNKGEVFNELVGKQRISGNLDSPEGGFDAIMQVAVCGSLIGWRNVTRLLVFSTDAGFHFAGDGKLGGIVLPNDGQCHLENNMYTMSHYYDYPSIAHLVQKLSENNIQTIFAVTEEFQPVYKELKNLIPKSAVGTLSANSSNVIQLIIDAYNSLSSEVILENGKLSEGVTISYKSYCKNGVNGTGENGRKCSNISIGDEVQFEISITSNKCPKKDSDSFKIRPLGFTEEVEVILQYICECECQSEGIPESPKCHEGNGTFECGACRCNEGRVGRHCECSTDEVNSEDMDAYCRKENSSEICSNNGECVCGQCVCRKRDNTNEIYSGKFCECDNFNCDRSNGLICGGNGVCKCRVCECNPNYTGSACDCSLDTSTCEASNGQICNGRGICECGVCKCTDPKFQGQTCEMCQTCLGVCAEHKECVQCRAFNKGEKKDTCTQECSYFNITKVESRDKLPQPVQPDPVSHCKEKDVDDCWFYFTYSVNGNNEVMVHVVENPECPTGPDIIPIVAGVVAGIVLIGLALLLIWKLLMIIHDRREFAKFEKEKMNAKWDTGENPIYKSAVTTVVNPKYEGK
Sequence (P13612 whole entry, looked up): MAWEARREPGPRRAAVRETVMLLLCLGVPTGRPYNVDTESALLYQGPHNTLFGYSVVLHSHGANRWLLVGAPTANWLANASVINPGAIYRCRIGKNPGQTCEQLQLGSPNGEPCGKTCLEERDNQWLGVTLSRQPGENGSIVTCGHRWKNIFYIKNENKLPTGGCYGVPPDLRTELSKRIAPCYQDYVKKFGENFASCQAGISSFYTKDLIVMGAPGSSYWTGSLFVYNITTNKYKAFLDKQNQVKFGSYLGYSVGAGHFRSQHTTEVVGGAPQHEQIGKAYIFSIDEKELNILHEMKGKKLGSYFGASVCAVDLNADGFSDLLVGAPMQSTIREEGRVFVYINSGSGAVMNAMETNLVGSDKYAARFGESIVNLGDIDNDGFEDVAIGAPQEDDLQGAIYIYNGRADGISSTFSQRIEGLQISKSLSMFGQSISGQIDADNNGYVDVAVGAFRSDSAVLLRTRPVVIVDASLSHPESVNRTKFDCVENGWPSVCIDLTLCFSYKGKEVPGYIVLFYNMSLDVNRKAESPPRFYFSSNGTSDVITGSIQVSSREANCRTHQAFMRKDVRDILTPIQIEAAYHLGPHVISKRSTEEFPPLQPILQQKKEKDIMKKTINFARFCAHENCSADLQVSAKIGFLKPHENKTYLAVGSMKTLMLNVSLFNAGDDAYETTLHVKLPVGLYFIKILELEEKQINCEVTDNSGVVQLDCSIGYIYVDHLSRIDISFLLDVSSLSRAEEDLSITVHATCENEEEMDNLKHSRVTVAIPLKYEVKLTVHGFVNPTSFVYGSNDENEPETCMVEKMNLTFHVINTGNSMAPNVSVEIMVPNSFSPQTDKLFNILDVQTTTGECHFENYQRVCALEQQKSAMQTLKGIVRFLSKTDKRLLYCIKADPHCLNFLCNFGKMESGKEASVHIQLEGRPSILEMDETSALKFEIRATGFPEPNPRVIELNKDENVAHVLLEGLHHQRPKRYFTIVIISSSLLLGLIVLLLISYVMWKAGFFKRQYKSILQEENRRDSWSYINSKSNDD
Test: alpha4beta1 integrin LIBS antibody binding reduction – U937 cells, HUTS-21 mAb, flow cytometry, validation set, VLA-4 allosteric modulator project, pilot screen (AID 2674);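 further: antibody binding induced by the VLA-4 ligand LDV present at three times its Kd; 0% = LDV ligand with antibody and no compound and 100% = antibody without LDV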
Conditions: HUTS-21 LIBS mAb binding, at 6.7 µM, stronger effect = higher value, binding induced by LDV ligand
Let's look at some compounds and their measured inhibition.
attribute_measured: inhibition (%)

- CCOc1ccc2ccccc2c1CNc1nnnn1C: 18.2
- O=c1[nH]cnc2[nH]ncc12: 15
- O=C(O)[C@@H](O)c1ccccc1: 16.8
- O=C1CC(c2ccc(O)cc2)Oc2cc(O)cc(O)c21 (configuration not stated): -31.6
- C/C(=N\NC(=O)c1ccccc1[N+](=O)[O-])c1ccc(Br)s1: 0.25
- CC(C)(C)N(Cc1ccccc1)C(=O)c1ccc(Br)o1: -7.08
- c1cnc(N2CCN(Cc3ccc4c(c3)OCO4)CC2)nc1: 2.93

---

Target: Cell division control protein 42 homolog (Homo sapiens) (UniProt P60953)
Sequence (P60953 whole entry, looked up): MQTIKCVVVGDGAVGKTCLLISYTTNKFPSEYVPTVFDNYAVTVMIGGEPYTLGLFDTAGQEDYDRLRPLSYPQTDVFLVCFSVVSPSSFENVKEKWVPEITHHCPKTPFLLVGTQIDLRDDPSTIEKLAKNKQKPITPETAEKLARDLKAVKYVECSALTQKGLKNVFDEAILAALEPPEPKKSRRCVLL
Experiment: inhibition of fluorescent GTP binding to wildtype Cdc42 – biochemical, multiplex bead flow cytometry, Bodipy-FL-GTP, dose response (AID 1334)
Conditions: bead-based flow cytometry, Bodipy-FL-GTP binding to GST-Cdc42; at 100 µM (top of the series) unless noted
Entries with a potency or affinity are not part of this list.
# if measured fluorescence, percent of control (lower = inhibition) < 40%: Satisfied  # else: Not satisfied

- CCOC(=O)c1c2c3c(cccc3[nH]c1=O)C(=O)c1ccccc1-2: Satisfied
- O=C(NNC(=S)NCc1ccc(Cl)cc1)c1ccc(Br)o1: Satisfied
- OC(CN1CCN(Cc2ccc3c(c2)OCO3)CC1)c1c[nH]c2ccccc12 (stereo unspecified): Satisfied
- Cc1nc2ncccn2c1-c1csc(Nc2ccc(O)cc2)n1: Satisfied
- COc1ccc(O)c(-c2cc(C(F)(F)C(F)F)nc(-c3ccccc3)n2)c1: Not satisfied
- O=S(=O)(Nc1cccc(-c2cn3cccnc3n2)c1)c1ccc(F)cc1: Satisfied

---

Target: Beta-2 adrenergic receptor (Homo sapiens) (UniProt P07550)
Sequence (P07550 whole entry, looked up): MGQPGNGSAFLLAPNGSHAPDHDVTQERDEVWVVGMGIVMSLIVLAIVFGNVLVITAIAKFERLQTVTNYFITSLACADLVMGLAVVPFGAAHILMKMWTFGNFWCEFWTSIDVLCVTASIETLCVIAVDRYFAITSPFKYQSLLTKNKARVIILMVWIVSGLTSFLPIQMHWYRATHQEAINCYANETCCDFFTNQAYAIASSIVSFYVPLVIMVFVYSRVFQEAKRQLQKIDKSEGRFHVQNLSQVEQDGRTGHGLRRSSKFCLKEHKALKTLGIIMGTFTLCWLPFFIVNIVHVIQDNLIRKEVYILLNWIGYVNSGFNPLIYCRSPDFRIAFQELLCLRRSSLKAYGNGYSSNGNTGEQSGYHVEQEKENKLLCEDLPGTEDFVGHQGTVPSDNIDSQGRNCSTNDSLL
Assay: agonist-induced loss of surface beta2AR – cell-based, FAP fluorogen, flow cytometry, validation set, pilot screen (AID 504459);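 further: agonist-driven loss of surface beta2AR via internalization measured by FAP dye flow cytometry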
Conditions: Am2.2-beta2AR cells, at 10 µM, stronger effect = higher value
Let's look at some compounds and their measured response.
attribute_measured: response (%)

• COc1ccc2nc(C)cc(Nc3ccccc3O)c2c1 = 7.69
• COc1ccc(CCn2c(C)nc3c(c(=O)c4ccccc4n3C)c2=O)cc1 = -29.5
• C[C@H]1O[C@@H](O[C@H]2[C@@H](O)C[C@H](O[C@H]3[C@@H](O)C[C@H](O[C@H]4CC[C@@]5(C)[C@H](CC[C@@H]6[C@@H]5C[C@@H](O)[C@]5(C)[C@@H](C7=CC(=O)OC7)CC[C@]65O)C4)O[C@@H]3C)O[C@@H]2C)C[C@H](O)[C@@H]1O = 12.4
• COc1cc2c(cc1OC)C1(CCCC1)CNC2c1cccc([N+](=O)[O-])c1 (stereo not given) = 23.6
• Nc1c(C(=O)c2ccccc2)oc2ccccc12 = -9.17
• CN(C)CCOC(c1ccccc1)c1ccccc1 = -13.1
• COc1cc2cc(C(=O)O)[nH]c2c(OC)c1OC = -2.07
• COc1ccc2cc([C@H](C)C(=O)O)ccc2c1 = 15.2
• CCc1ccc2oc(=O)cc(CN3CCC(C)CC3)c2c1 = 13.8
• COc1ccc(NC(=O)Nc2ccc(C(C)C)cc2)cc1 = 2.17
